Assay info: Pharmacokinetics, single oral dose
Assay type: in vivo, Wistar rat
Setup conditions: male, Wistar, rat; 10 mg/kg oral gavage, plasma
Reported metric: Cmax (nM)
One number for each entry, in nM.

Data request, read-out Cmax, for CC[C@H](C)[C@@H](NC(=O)[C@H](CC1CCCCC1)NC(=O)c1ccno1)C(=O)N1CCC2(C=Cc3ccccc32)CC1
1700

###

Assay info: Pharmacokinetics, single oral dose
Type: in vivo, Wistar rat
Setup conditions: male, Wistar, rat, plasma, po, 10 mg/kg, 10 mg/kg p.o., from AUC 0-6 h; read-out: oral bioavailability F
Reported metric: bioavailability (%)
One number for each entry, in %.

Quick check: bioavailability of CC[C@H](C)[C@@H](NC(=O)[C@H](CC1CCCCC1)NC(=O)c1ccno1)C(=O)N1CCC2(C=Cc3ccccc32)CC1 [Compound 52] ?
55

###

Assay info: Pharmacokinetics, four consecutive daily oral doses
Assay type: in vivo, Wistar rat
Setup conditions: Wistar, rat, plasma, oral; 10 mg/kg/day p.o. for 4 days; read-out: plasma concentration Cp at 24 h after the fourth dose
Reported metric: concentration at 24 h (nM)
Answers are plain numbers, in nM.

What concentration at 24 h value was documented for this compound, CC[C@H](C)[C@@H](NC(=O)[C@H](CC1CCCCC1)NC(=O)c1ccno1)C(=O)N1CCC2(C=Cc3ccccc32)CC1 ?
500

###

Tested on: PAR2 (Homo sapiens)
Assay info: PAR2 agonist inhibition (antagonism): intracellular Ca2+ release in HT29 cells
Format: cell-based
Parameters: endogenous in cells; host or cells: HT29 (human colorectal adenocarcinoma)
Setup conditions: other ligands; inhibiting Ca2+ release in HT29 cells; 30 min pre-incubation, agonist at EC80
Reported metric: pIC50
Numbers only, as −log10 of the molar value.

CC[C@H](C)[C@@H](NC(=O)[C@H](CC1CCCCC1)NC(=O)c1ccno1)C(=O)N1CCC2(CCc3ccccc32)CC1    5.52
CC[C@H](C)[C@@H](NC(=O)[C@H](CC1CCCCC1)NC(=O)c1ccno1)C(=O)N1CCC2(C=Cc3ccccc32)CC1    6.00
CC[C@H](C)[C@@H](NC(=O)[C@H](CC1CCCCC1)NC(=O)C1CCC(=O)N1)C(=O)N1CCC2(C=Cc3ccccc32)CC1 (stereo partly drawn)    4.60
CC[C@H](C)[C@@H](NC(=O)[C@H](CC1CCCCC1)NC(=O)c1c[nH]cn1)C(=O)N1CCC2(C=Cc3ccccc32)CC1    5.00
CC[C@H](C)[C@@H](NC(=O)[C@@H](N)CC1CCCCC1)C(=O)N1CCC2(C=Cc3ccccc32)CC1    4.77

Quick one: pIC50 of CC[C@H](C)[C@@H](NC(=O)[C@H](CC1CCCCC1)NC(=O)C1CCCN1)C(=O)N1CCC2(C=Cc3ccccc32)CC1 (stereo partly drawn) ?
4.30

###

Tested on: UniProt:P55085
Sequence (P55085 26-397): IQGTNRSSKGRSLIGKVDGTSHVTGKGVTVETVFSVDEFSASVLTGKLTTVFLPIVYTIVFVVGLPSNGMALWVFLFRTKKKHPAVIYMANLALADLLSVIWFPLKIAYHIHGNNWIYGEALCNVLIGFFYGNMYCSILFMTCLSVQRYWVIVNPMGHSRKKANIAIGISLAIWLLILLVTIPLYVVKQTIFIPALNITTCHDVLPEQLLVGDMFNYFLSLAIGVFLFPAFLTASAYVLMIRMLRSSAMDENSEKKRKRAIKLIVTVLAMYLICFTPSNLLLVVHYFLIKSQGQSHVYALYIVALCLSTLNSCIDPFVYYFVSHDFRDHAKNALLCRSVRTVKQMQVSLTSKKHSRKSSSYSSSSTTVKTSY
Assay info: Colonocyte modulation: intracellular calcium mobilization in HT29 cells
Type: cell-based
Set-up: endogenous in cells; host or cells: HT29 (human colorectal adenocarcinoma)
Setup conditions: HT29 colonocytes, 15 min before 2Furoyl-LIGRLO-NH2
Experimental: Human colorectal adenocarcinoma (HT29) cells were incubated with a calcium binding dye ([…]) buffer for 1 h at 37° C. […] Intracellular calcium mobilization was measured by differences in fluorescence plotted against corresponding antagonist concentrations, enabling the determination of antagonist potency.
Reported metric: pIC50
One number for each entry, as −log10 of the molar value.

Form: Entry = CC(C)CC(=O)N1CCN(C(=O)CCCCCN)CC1 [ENMD-1068, reference compound] | System = UniProt:P55085 | pIC50 = ____
2.30

###

Assay info: Pharmacokinetics, four consecutive daily oral doses
Assay type: in vivo, Wistar rat
Setup conditions: Wistar, rat, intraperitoneal adipose / plasma, oral; 10 mg/kg/day p.o. for 4 days; read-out: intraperitoneal adipose concentration as share of Cp at 24 h
Reported metric: Kp at 24 h

If you can, please state the reported Kp at 24 h value of CC[C@H](C)[C@@H](NC(=O)[C@H](CC1CCCCC1)NC(=O)c1ccno1)C(=O)N1CCC2(C=Cc3ccccc32)CC1 [Compound 52] .
~0.3

###

Tested on: PAR2 (Homo sapiens, UniProt P55085)
Assay info: PAR2 agonist inhibition (antagonism): intracellular Ca2+ release in HT29 cells
Format: cell-based
Parameters: endogenous in cells; host or cells: HT29 (human colorectal adenocarcinoma)
Setup conditions: other ligands; inhibiting Ca2+ release in HT29 cells; 30 min pre-incubation, agonist at EC80
Reported metric: IC50 (µM)
Numbers only, in µM.

Solved entries (count: 2):
CC[C@H](C)[C@@H](NC(=O)[C@H](CC1CCCCC1)NC(=O)c1cc(C)on1)C(=O)N1CCC2(C=Cc3ccccc32)CC1    25
CC[C@H](C)[C@@H](NC(=O)[C@H](CC1CCCCC1)NC(=O)c1nc[nH]n1)C(=O)N1CCC2(C=Cc3ccccc32)CC1    15

Query compound follows.
# IC50 lookup, item CC[C@H](C)[C@@H](NC(=O)[C@H](CC1CCCCC1)NC(=O)C1CCNCC1)C(=O)N1CCC2(C=Cc3ccccc32)CC1
50

###

Assay info: Pharmacokinetics, single oral dose
Assay type: in vivo, Wistar rat
Setup conditions: Wistar, rat, paw tissue homogenate, po; 3 h post administration, 10 mg/kg p.o., LCMS/MS; read-out: concentration in paw tissue homogenates
Reported metric: concentration at 3 h
Please state the value followed by its unit.

Query: concentration at 3 h; subject: CC[C@H](C)[C@@H](NC(=O)[C@H](CC1CCCCC1)NC(=O)c1ccno1)C(=O)N1CCC2(C=Cc3ccccc32)CC1
35 nM

###

Assay info: Pharmacokinetics, four consecutive daily oral doses
Assay type: in vivo, Wistar rat
Setup conditions: Wistar, rat, cerebrospinal fluid, oral; 10 mg/kg/day p.o. for 4 days; read-out: concentration in cerebral spinal fluid (none detected, LCMS/MS detection limit)
Reported metric: concentration at 5 day

Any idea what concentration at 5 day was measured for CC[C@H](C)[C@@H](NC(=O)[C@H](CC1CCCCC1)NC(=O)c1ccno1)C(=O)N1CCC2(C=Cc3ccccc32)CC1 ?
< 1.8 nM
